# maps each entry to its TGI
System: OVCAR-4 ovarian
test_summary: NCI tumour cell line growth inhibition, 48 h

# molecule CCCSc1ccc2[nH]c(N3C(=O)/C(=C/c4ccc(SC)cc4)N=C3c3ccccc3)cc2c1 ; its TGI = > 50 µM

# molecule Cc1cc(-c2cc(O)ccc2Cl)cc2nnc(Nc3ccc(OCCN4CCCC4)cc3)nc12 ; its TGI = 1.3 µM

# molecule CCC1(c2ccc(N3C(=O)c4cc(OC)c(OC)cc4C3=O)cc2)CCC(=O)NC1=O (centres undefined) ; its TGI = > 10 µM

# molecule O=C1C=CC(=O)c2c(O)c3c(c(O)c21)C[C@H](O)[C@H](O)[C@@H]3O ; its TGI = 3.45 µM

# molecule CC(=O)c1ccc2c(c1)CC1(C2)Cc2cc3c(c(C(=O)O)c2C1)CCC3 (centres undefined) ; its TGI = > 100 µM

====

System: SF-539 CNS
test_summary: NCI tumour cell line growth inhibition, 48 h
endpoint: TGI

The following molecules have reported results that may help.
O=[N+]([O-])c1ccc(-n2nc3ccc4c(no[n+]4[O-])c3n2)cc1
> 100 µM
COC(=O)C1C(=O)O[C@@H](c2cc(OC)c(OC)cc2OC)C1C(=O)OC (mixture of isomers)
> 100 µM
Clc1cccc(C2N3CCCCC3[C@@H]3c4[nH]c5ccccc5c4CCN23)c1 (some centres undefined)
57.7 µM
COc1ccc(S(=O)(=O)N(CC(=O)O)c2ccccc2)cc1
> 100 µM
C/C(=C(\c1ccc(OCCN2CCCCCC2)cc1)c1ccc(OC(=O)c2ccccc2)cc1)c1ccc(Cl)cc1
8.31 µM

# molecule CC(=O)NC(NCCN)(c1ccccc1)c1ccccc1 ; its TGI = > 100 µM

# molecule CCOC(=O)/C=C(/C(=O)OCC)n1ccc(=O)n(Cc2cnnn2COCCOC(C)=O)c1=O ; its TGI = 25.7 µM

# molecule COc1cc(C2c3cc4c(cc3C(OC(=O)C[n+]3ccccc3)C3COC(=O)C23)OCO4)cc(OC)c1OC (centres undefined) ; its TGI = < 0.0278 µM

# molecule CC(=O)OCC1OC(n2c3c(c(-c4ccc(Cl)cc4)c(C#N)c2=S)CCCC3)C(OC(C)=O)C(OC(C)=O)C1OC(C)=O (centres undefined) ; its TGI = > 100 µM

====

System: SNB-19 CNS
test_summary: NCI tumour cell line growth inhibition, 48 h
# maps each entry to its TGI
Number in µM, nothing else.

The following molecules have reported results that may help.
CCCCc1ccc(Nc2nc(OC)c3ncn(C4CC(O)C(CO)O4)c3n2)cc1 (stereo not given)
34.3
Cn1cc2ccccc2c1-c1nc(F)nc(Oc2ccc3c(c2)CC[C@@H]2C3CC[C@@]3(C)C2C[C@H](O)[C@@H]3O)n1 (stereo not given in full)
29.5
CCN(Cc1cccc(Cl)c1)c1ccc(CO)c(Cl)c1
28.6
CC(C)=CCCC(C)CCOS(=O)C(F)(F)F (stereo not given)
78

We now examine a further molecule.
Bench note, SNB-19 CNS: entry [B-][P+](CC[P+]1([B-])[C@@H](C)[C@@H](O)[C@H](O)[C@@H]1C)(c1ccccc1)c1ccccc1OC (stereo not given in full) , its TGI = 30.9

====

Test system: LOX IMVI melanoma
test_summary: NCI tumour cell line growth inhibition, 48 h; in the data active means GI50 below about 0.43 µM; inactive means the rest
# output must be one of active, inactive

A selection of reference data follows.
C=CCC(N[C@@H](CO)c1ccccc1)c1cn(C(=O)OCC)c2ccccc12 (some centres undefined)
inactive
O=C1c2ccccc2-c2c1c1ccccc1c(=O)n2CCCNCCn1c2c(c3ccccc3c1=O)C(=O)c1ccccc1-2
active
CCNC(=O)Oc1ccc(/C(=C(/C)Cc2ccc(OC)cc2)c2ccc(OCCN(CC)CC)cc2)cc1
inactive
CC(=O)N1N=C(c2ccc(Nc3nc(Nc4ccc(F)cc4)nc(Nc4ccc(F)cc4)n3)cc2)CC1c1ccc(N(C)C)cc1 (centres undefined)
inactive
Cc1cc(C)c(-c2c(N)cc(Br)cc2Br)c(N)c1
inactive
C/C(=C(\c1ccc(OCCN2CCCCCC2)cc1)c1ccc(OC(=O)c2ccccc2)cc1)c1ccc(Cl)cc1
inactive
Cc1cc(Nc2nc(N[C@@H](C)c3ncc(F)cn3)ncc2Cl)n[nH]1
inactive
CC(=O)C1=C(O)C=C2Oc3c(C(=O)/C=C/c4cc(Cl)cc(Cl)c4)c(O)c(C)c(O)c3[C@]2(C)C1=O
inactive

Pending molecule:
Ask | Lab log entry: Nc1nc(/C=C\c2ccccc2)nc(N2CCN(c3ccccc3)CC2)n1 — outcome as called in the assay?
Reply | inactive

====

# maps each entry to its TGI
Test system: EKVX NSCLC
test_summary: NCI tumour cell line growth inhibition, 48 h

The following compounds have reported results that may help.
CC(C)C1NC(=O)CC(c2ccccc2)N(N=O)C1c1ccccc1 (stereo not drawn)
> 100 µM
CC(=O)[CH-]C(=O)c1ccccc1.CC(=O)[CH-]C(=O)c1ccccc1.CC(=O)[CH-]C(=O)c1ccccc1.[Nd+3].[OH3+]
> 100 µM
Oc1c(Cl)cc(Cl)c2ccc(Cn3cc(-c4ccc(C(F)(F)F)cc4)nn3)nc12
19.5 µM
N/N=C(/Cc1nc2ccc(C(=O)c3ccccc3)cc2[nH]c1=O)C(=O)Nc1ccc([N+](=O)[O-])cc1[N+](=O)[O-]
> 100 µM
O=C(c1ccccc1)N1CCC(CC2(c3cc4ccccc4[nH]3)OCCO2)CC1
> 100 µM

# compound OC(CN(CCCl)CCCl)C(O)C(O)C(O)CN(CCCl)CCCl (stereo not drawn) ; its TGI = > 100 µM

# compound COc1ccc(OC)c(/C=N/N=C(\N)NO)c1 ; its TGI = > 100 µM

# compound COc1c(-c2ccccc2)nc2ccc(Oc3ccccc3)nn12 ; its TGI = > 100 µM

# compound CCC1(c2ccc(N3C(=O)c4cc(OC)c(OC)cc4C3=O)cc2)CCC(=O)NC1=O (stereo not drawn) ; its TGI = > 10 µM

# compound COc1cccc(C2SC(N)=Nc3c2c(C)nn3C(=O)Cc2ccccc2)c1 (stereo not drawn) ; its TGI = > 100 µM

# compound Nc1c(Cl)ncnc1NCCCCCCCCCCCCNc1ncnc(Cl)c1N ; its TGI = 98.1 µM

# compound CC1=C(O)c2ccccc2C(=O)C1=O ; its TGI = > 100 µM

# compound CCOC(=O)CC(NC(=O)c1[nH]cnc1/N=N/N(C)C)C(=O)OCC (stereo not drawn) ; its TGI = > 100 µM

# compound CC(=O)[CH-]C(=O)c1ccccc1.CC(=O)[CH-]C(=O)c1ccccc1.O=S(=O)([O-])c1cc([O-])c2c([O-])cc(S(=O)(=O)[O-])cc2c1.[Na+].[Zr+4] ; its TGI = > 100 µM

====

System: MOLT-4 leukemia
test_summary: NCI tumour cell line growth inhibition, 48 h
endpoint: TGI (µM)
Number in µM, nothing else.

CCCCCCCCCCCCOC1C(CNC(=O)C2OC3OC(C)(C)OC3C2NC(=O)CN2CCN(c3ccc(OC)cc3)CC2)OC2OC(C)(C)OC21 (centres undefined)
10.8
CCCCc1ccc(Nc2nc(OC)c3ncn(C4CC(O)C(CO)O4)c3n2)cc1 (centres undefined)
36.7
Cn1cc(-c2cnn3c(N)c(Br)c(C4CCCNC4)nc23)cn1 (centres undefined)
23.2
COC(C)(C)/C=C/c1[nH]c2ccccc2c1CC(=O)NCCc1cn(C(c2ccccc2)(c2ccccc2)c2ccccc2)cn1
6.21
CN(CCCNC(=O)c1cn(C)c2c1Cc1ccccc1-2)CCCNC(=O)c1cn(C)c2c1Cc1ccccc1-2
16.4

We now examine a further compound.
# compound Cc1c(N=C/C=C/c2ccccc2)c(=O)n(-c2ccccc2)n1C ; its TGI = 83.8

====

# maps each entry to its TGI
Tested on: MCF7 breast
test_summary: NCI tumour cell line growth inhibition, 48 h

# molecule Cc1cc(=O)oc2cc(OCC(O)COC(C)C)ccc12 (stereo unspecified) ; its TGI = > 100 µM

# molecule CCc1ccc(COC(=O)C2=C(C)NC(C)=C(C(=O)OCc3ccc(CC)cn3)C2C2=COCCO2)nc1 ; its TGI = 43 µM

# molecule CC(Nc1ccc(Cl)c(Cl)c1)c1ccncc1 (stereo unspecified) ; its TGI = > 100 µM

====

Tested on: HCT-15 colon
test_summary: NCI tumour cell line growth inhibition, 48 h
endpoint: TGI

COC(=O)c1oc2c(C(=O)/C=C/c3ccc(OC)cc3)c(OCCN(C)C)ccc2c1C
16.8 µM
Cn1c2c(c3c(Cl)nncc31)Cc1ccccc1-2
> 100 µM
CCCCCCCCCCCCOC1C(CNC(=O)C2OC3OC(C)(C)OC3C2NC(=O)CN2CCN(c3ccc(OC)cc3)CC2)OC2OC(C)(C)OC21 (stereo not drawn)
11.3 µM
COc1ccc2c(c1)CCCN1CCc3ccccc3C21 (stereo not drawn)
> 100 µM
COC1(OC)C2(Cl)C(Cl)=C(Cl)C1(Cl)C1C2C2CC1(C(=O)O)c1ccccc12 (stereo not drawn)
62.3 µM

Bench note, HCT-15 colon: entry CCOC(=O)c1nc2ccc(C(F)(F)F)cc2nc1NCc1ccc(OC)c(OC)c1 , its TGI = > 100 µM

Bench note, HCT-15 colon: entry Cc1cccc(C)c1N1C(=O)C(=O)C(c2nc3ccccc3s2)/C(=N\N)C1=O (stereo not drawn) , its TGI = > 100 µM

Bench note, HCT-15 colon: entry COC1CC(OC2C(C)OC(OC3C(C)OC(OC4C(C)OC(O[C@H]5CC[C@@]6(C)C(=CC[C@]7(O)[C@@H]6C[C@@H](OC(C)=O)[C@@]6(C)[C@]7(O)CC[C@@]6(O)C(C)=O)C5)CC4OC)CC3OC)CC2OC)OC(C)C1O (stereo partly drawn) , its TGI = > 25 µM
